- Target under test: Integrin alpha-V/beta-3 (Homo sapiens, UniProt P05106+P06756)
- Sequence (P05106 27-788 limits assumed): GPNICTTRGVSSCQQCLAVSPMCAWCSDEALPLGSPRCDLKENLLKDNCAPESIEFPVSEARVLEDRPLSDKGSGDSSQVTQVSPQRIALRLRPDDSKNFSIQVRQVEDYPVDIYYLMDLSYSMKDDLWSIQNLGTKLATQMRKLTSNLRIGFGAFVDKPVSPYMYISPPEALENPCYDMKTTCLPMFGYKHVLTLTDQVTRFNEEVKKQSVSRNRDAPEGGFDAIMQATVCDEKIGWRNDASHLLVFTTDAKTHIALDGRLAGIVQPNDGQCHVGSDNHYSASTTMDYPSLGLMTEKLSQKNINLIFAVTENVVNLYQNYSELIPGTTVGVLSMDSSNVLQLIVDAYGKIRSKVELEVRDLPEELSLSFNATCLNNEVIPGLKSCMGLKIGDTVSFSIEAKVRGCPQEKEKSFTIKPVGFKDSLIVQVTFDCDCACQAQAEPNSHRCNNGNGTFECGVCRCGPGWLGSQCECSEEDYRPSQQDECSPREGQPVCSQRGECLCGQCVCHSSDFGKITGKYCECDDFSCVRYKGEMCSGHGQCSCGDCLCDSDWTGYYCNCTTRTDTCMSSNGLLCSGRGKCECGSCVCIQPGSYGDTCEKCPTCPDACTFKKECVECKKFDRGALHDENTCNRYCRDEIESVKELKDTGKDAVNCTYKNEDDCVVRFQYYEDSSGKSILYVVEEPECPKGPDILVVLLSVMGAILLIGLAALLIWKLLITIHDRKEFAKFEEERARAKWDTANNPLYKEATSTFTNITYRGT
- Sequence (P06756 31-889 limits assumed): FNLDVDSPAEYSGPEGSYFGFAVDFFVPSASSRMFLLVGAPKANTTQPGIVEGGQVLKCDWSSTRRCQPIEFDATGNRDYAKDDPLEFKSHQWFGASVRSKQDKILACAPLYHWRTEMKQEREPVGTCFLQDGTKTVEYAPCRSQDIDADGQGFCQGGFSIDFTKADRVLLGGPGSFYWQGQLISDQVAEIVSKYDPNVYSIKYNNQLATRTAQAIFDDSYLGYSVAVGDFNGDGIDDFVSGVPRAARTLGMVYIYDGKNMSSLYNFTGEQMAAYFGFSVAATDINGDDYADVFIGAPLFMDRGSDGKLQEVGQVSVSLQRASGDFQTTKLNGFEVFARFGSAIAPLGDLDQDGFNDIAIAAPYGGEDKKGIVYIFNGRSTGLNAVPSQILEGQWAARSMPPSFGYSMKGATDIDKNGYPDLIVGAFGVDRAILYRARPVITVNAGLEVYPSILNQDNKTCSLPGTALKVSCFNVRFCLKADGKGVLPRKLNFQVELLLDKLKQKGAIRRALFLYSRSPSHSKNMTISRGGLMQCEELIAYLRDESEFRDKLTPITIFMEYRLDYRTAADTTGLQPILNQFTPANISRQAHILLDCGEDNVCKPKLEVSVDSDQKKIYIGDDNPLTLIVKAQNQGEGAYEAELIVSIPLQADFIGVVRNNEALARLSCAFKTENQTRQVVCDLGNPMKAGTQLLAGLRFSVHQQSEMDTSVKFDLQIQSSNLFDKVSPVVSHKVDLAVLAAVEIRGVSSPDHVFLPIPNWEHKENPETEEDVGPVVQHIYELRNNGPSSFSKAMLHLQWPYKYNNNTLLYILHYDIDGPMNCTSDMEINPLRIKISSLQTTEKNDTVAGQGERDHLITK
- Sequence (P06756 891-1048 limits assumed): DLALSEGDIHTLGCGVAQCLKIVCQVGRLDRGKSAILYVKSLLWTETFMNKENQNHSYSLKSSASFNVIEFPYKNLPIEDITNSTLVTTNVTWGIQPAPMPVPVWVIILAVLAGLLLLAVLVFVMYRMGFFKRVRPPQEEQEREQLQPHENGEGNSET
- Test protocol: Displacement of [125I] echistatin from alphaVbeta3 integrin isolated from human placenta after 3 hrs by liquid scintillation counter
Parameter: pIC50
By convention, pIC50 is the negative base-10 log of a molar concentration.

Ask: Hello, please tell me recorded pIC50 for this one: `N=C(N)NCCC[C@@H]1NC(=O)[C@H]2COCCN2C(=O)[C@@H](Cc2ccc(O)c(I)c2)NC(=O)[C@H](CC(=O)O)NC(=O)CNC1=O`
Reply: 7.32
